These entries and their values trace back to paper PMC9424906.

assay remarks: Pharmacokinetics in Cynomolgus monkeys
Assay type: in vivo
condition notes: male, cynomolgus monkey, in vivo, po, 5 mg/kg
endpoint name: Cmax
Please provide the amount together with its unit, number first.

# compound N#C[C@@]1(c2ccc3c(N)ncnn23)O[C@H](CO)[C@@H](O)[C@H]1O [GS-441524] ; its Cmax = 59.4 ng/mL

---

assay remarks: Pharmacokinetics in Beagle dogs
Assay type: in vivo, dog
condition notes: male, beagle, dog, in vivo, po, 5 mg/kg
endpoint name: Tmax (min)
Lab book: enter the figure in min, no units written.

# compound N#C[C@@]1(c2ccc3c(N)ncnn23)O[C@H](CO)[C@@H](O)[C@H]1O [GS-441524] ; its Tmax = 16.8

---

assay remarks: Pharmacokinetics in Beagle dogs
Format: in vivo, dog
condition notes: male, beagle, dog, in vivo, po, 5 mg/kg
endpoint name: bioavailability (%)
Lab book: enter the figure in %, no units written.

# compound `N#C[C@@]1(c2ccc3c(N)ncnn23)O[C@H](CO)[C@@H](O)[C@H]1O` ; its bioavailability = 85

---

assay remarks: Pharmacokinetics in Beagle dogs
Format: in vivo, dog
condition notes: male, beagle, dog, in vivo, po, 5 mg/kg
endpoint name: Cmax (ng/mL)
Lab book: enter the figure in ng/mL, no units written.

# compound N#C[C@@]1(c2ccc3c(N)ncnn23)O[C@H](CO)[C@@H](O)[C@H]1O [GS-441524] ; its Cmax = 6010

---

assay remarks: Liver microsomal stability, SD rat
Type: in vitro ADME
condition notes: Sprague-Dawley, liver microsomes, pH 7.4, 0.5 mg/mL
endpoint name: half-life at 1 µM (h)
Lab book: enter the figure in h, no units written.

# molecule `N#C[C@@]1(c2ccc3c(N)ncnn23)O[C@H](CO)[C@@H](O)[C@H]1O` ; its half-life at 1 µM = 1.02

---

Test system: MDR1
assay remarks: in vitro
condition notes: dog, MDCK-MDR1, pH 7.4, Papp A to B, MDCK-MDR1, 5 µM, no inhibitor
endpoint name: Papp A→B at 2 h, 5 µM (×10⁻⁶ cm/s)
Lab book: enter the figure in ×10⁻⁶ cm/s, no units written.

# compound N#C[C@@]1(c2ccc3c(N)ncnn23)O[C@H](CO)[C@@H](O)[C@H]1O [GS-441524] ; its Papp A→B at 2 h, 5 µM = 0.158

---

assay remarks: Pharmacokinetics in Cynomolgus monkeys
Format: in vivo
condition notes: male, cynomolgus monkey, in vivo, po, 5 mg/kg
endpoint name: AUC(0-inf) (ng·h/mL)
Lab book: enter the figure in ng·h/mL, no units written.

# compound `N#C[C@@]1(c2ccc3c(N)ncnn23)O[C@H](CO)[C@@H](O)[C@H]1O` ; its AUC(0-inf) = 734

---

assay remarks: physchem
condition notes: pH 6.5, fassif, thermodynamic from solid
endpoint name: solubility thermodynamic (µg/mL)
Lab book: enter the figure in µg/mL, no units written.

# compound `N#C[C@@]1(c2ccc3c(N)ncnn23)O[C@H](CO)[C@@H](O)[C@H]1O` ; its solubility thermodynamic = 35

---

assay remarks: Pharmacokinetics in Sprague Dawley rats
Assay type: in vivo
condition notes: male, rat, in vivo, po, 30 mg/kg
endpoint name: Tmax
Please provide the amount together with its unit, number first.

# compound N#C[C@@]1(c2ccc3c(N)ncnn23)O[C@H](CO)[C@@H](O)[C@H]1O [GS-441524] ; its Tmax = 3.8 h
